Data origin: patent US20230052369A1

# Assay Target: T1, recombinant His-tagged human FRα (human, UniProt P15328 25-234)
# T1 construct: Bought protein; also called hFRα; FRα-HIS
# T1 sequence (P15328 25-234 limits assumed): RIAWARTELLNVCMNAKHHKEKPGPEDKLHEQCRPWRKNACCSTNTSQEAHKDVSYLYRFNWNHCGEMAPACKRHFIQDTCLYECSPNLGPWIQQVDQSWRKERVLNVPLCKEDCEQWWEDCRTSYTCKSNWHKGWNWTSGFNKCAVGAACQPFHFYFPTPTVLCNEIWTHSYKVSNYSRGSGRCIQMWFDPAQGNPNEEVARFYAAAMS
# Experimental Protocol: BLI, purified, average n=2
I'd appreciate it if you could supply Kd values for the items below.
Give bare numbers, in nM.

I have 3 binders here; please give me Kd for each one.
1. v23805 (antibody, human IgG1, kappa, V domains shown, also called humanized 8K22 H2L3) VH: EVQLVESGGGLVQPGGSLRLSCAASGFTISNNYYMCWVRQAPGKGLEWIACIYGGISGRTYYADSAKGRFTISKDNSKNTVYLQMNSLRAEDTAVYYCVRGYVGTSNLWGQGTLVTVSS VL: DIQMTQSPSSLSASVGDRVTITCQASQSIYSSLAWYQQKPGKAPKLLIYDASHLASGVPSRFSGSRYGTDFTLTISSVQPEDFATYYCQGGWYSSAATYVPNTFGGGTKVEVKR
2. v23808 (antibody, human IgG1, kappa, V domains shown, also called humanized 8K22 H5L3) VH: EVQLVESGGGLVQPGGSLRLSCAASGFTISNNYYMCWVRQAPGKGLEWIACIYGGISGRTYYADWAKGRFTISKDSSKNTVYLQMNSLRAEDTAVYYCVRGYVGTSNLWGQGTLVTVSS VL: DIQMTQSPSSLSASVGDRVTITCQASQSIYSSLAWYQQKPGKAPKLLIYDASHLASGVPSRFSGSRYGTDFTLTISSVQPEDFATYYCQGGWYSSAATYVPNTFGGGTKVEVKR
3. v23815 (antibody, human IgG1, kappa, V domains shown, also called humanized 8K22 H2L5) VH: EVQLVESGGGLVQPGGSLRLSCAASGFTISNNYYMCWVRQAPGKGLEWIACIYGGISGRTYYADSAKGRFTISKDNSKNTVYLQMNSLRAEDTAVYYCVRGYVGTSNLWGQGTLVTVSS VL: DIQMTQSPSSLSASVGDRVTITCQASQSIYSSLAWYQQKPGKAPKLLIYDASHLASGVPSRFSGSRYGTDFTLTISSVQPEDAATYYCQGGWYSSAATYVPNTFGGGTKVEVKR

### Response
1: 10.2; 2: 13.1; 3: 16.5
